# assayed.target: Mouse ACVR2A (mouse, UniProt P27038 20-135, limits assumed); also: test concentration or dose not given here
# Sequence (P27038 20-135 limits assumed): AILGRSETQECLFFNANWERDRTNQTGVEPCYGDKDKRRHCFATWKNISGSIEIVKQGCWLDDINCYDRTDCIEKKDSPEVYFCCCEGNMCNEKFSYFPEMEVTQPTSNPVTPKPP
# experiment.summary: ELISA
# Method: The binding of ACVR2A-specific monoclonal antibodies to human ACVR2A, mouse ACVR2A, biotinylated goat anti-human kappa light chain (positive control) and human Fc (negative control) were determined by ELISA.
property: optical density (OD)
// note: answer is a bare numeric in OD

{"binder": "365_D02 (antibody, V domains shown, VH/VL only) VH: EVQLLESGGGLVQPGGSLRLSCAASGFTFSSYSMHWVRQAPGKGLEWVASINYNGGYTSYADSVKGRFTISRDNSKNTLYLQMNSLRAEDTAVYYCARGATWHDTHLDYWGQGTLVTVSS VL: DIQMTQSPSSLSASVGDRVTITCRASQSIVTYLNWYQQKPGKAPKLLIYAATSLASGVPSRFSGSGSGTDFTLTISSLQPEDFATYYCQQSYDNPLTFGGGTKVEIK", "optical density / OD": 2.7}

Lookup: Answer with the recorded optical density for the binder listed here: 370_D09 (antibody, V domains shown, VH/VL only) VH: EVQLLESGGGLVQPGGSLRLSCAASGFTFSDYSMNWVRQAPGKGLEWVSGINYNSGYTSYADSVKGRFTISRDNSKNTLYLQMNSLRAEDTAVYYCARGATWHDTHLDYWGQGTLVTVSS VL: DIQMTQSPSSLSASVGDRVTITCRASQSIVTYLNWYQQKPGKAPKLVIYAATSRASGVPSRFSGSGSGTDFTLTISSLQPEDFATYYCQQSYDTPLTFGGGTKVEIK
Found: 2.53
